Species: Rattus norvegicus
assay summary: Open TG-GATES - Regimen: Daily Repeat
Format: toxicity, organism-based, Sprague-Dawley
Parameters: regimen Daily Repeat, gender Male, age 6 weeks
condition info: in vivo, po, 10 mg/kg, […], tissue Kidney, route gavage, dose level Low, time 7 day
Reported KIDNEY_TOTAL values for the following compounds.

compound	unit of measure	KIDNEY_TOTAL
CC(C)OC(=O)C(C)(C)Oc1ccc(C(=O)c2ccc(Cl)cc2)cc1 [FENOFIBRATE]	g	2.1
CN(C)CCCN1c2ccccc2CCc2ccccc21	g	2.1
CC1=C(/C=C/C(C)=C/C=C/C(C)=C/CO)C(C)(C)CCC1	g	2.2
CN(C)CCN(Cc1cccs1)c1ccccn1	g	2
